PROCEDURE_TEXT: Phosphate stability in mouse serum (Example 68)
CONDITION_DESCRIPTION: full compound with intact phosphorous moiety, first table
[R5Me] = (R)-5'-methyl-2'-deoxythymidine; e = 2'-O-(2-methoxyethyl) (MOE); {P} = phosphate; f = 2'-fluoro
Measured T1/2 full length, listed per entry.
VALUE_TYPE: T1/2 full length (h)

SUBSTANCE	UNIT_STRING	REPORTED_VALUE
5′-Ps-UdUfoGfoUfoCfoUfoCfoUfoGfoGfoUfoCfoCfoUfsUfsAfsCfsUfsUf (antisense UUGUCUCUGGUCCUUACUU; 5'-thiophosphate, 2'-F modifications, chemistry not fully specified) [ISIS 430601]	h	3.7
P-TRUfGfUfCfUfCfUfGfGfUfCfCfUfUfAfCfUfUfAeAe (antisense TUGUCUCUGGUCCUUACUUAA; sugars from the 5' end [R5Me]1 f18 e2, 5' {P}, backbone not given here) [ISIS 432356]	h	8.7

* * *

Test system: PTEN
PROCEDURE_TEXT: PTEN mRNA reduction in HeLa cells, dose response (Example 69)
Type: cell-based, human
CONDITION_DESCRIPTION: percent inhibition of PTEN mRNA, 0.067-50 nM
pEC50: −log10 of the molar value. [Rc] = thymidine, 2',5'-bis modified nucleoside Rc; e = 2'-O-(2-methoxyethyl) (MOE); m = 2'-O-methyl; {P} = phosphate; f = 2'-fluoro

SUBSTANCE	pEC50
P-TRcUfGmUfCmUfCmUfGmGfUmCfCmUfUmAfCmUfUmAeAe (antisense TUGUCUCUGGUCCUUACUUAA; sugars from the 5' end [Rc]fmfmfmfmfmfmfmfmfmee, 5' {P}, backbone not given here) [ISIS 447581, modified ssRNA targeting PTEN]	9.22
P-UmUfGmUfCmUfCmUfGmGfUmCfCmUfUmAfCmUfUmAeAe (antisense UUGUCUCUGGUCCUUACUUAA; sugars from the 5' end mfmfmfmfmfmfmfmfmfmee, 5' {P}, backbone not given here) [ISIS 418046, modified ssRNA targeting PTEN]	9.08
Py-^meUmUfGmUfCmUfCmUfGmGfUmCfCmUfUmAfCmUfUmAeAe (antisense UUGUCUCUGGUCCUUACUUAA; 5'-methylenephosphonate, 2'-F/2'-OMe, MOE, chemistry not fully specified) [ISIS 467076, modified ssRNA targeting PTEN, 5′-methylenephosphonate]	8.22
P-TScUfGmUfCmUfCmUfGmGfUmCfCmUfUmAfCmUfUmAeAe (antisense TUGUCUCUGGUCCUUACUUAA; 5'-phosphate, 2'-F/2'-OMe, MOE modifications, chemistry not fully specified) [ISIS 467074, modified ssRNA targeting PTEN]	8.60

* * *

Tested on: human PTEN
PROCEDURE_TEXT: PTEN expression in HeLa cells, ssRNAs vs siRNAs (Example 62)
Assay type: cell-based
CONDITION_DESCRIPTION: single stranded antisense compound, PTEN mRNA, read-out: EC50 (nM) ssRNA
Strand notation (5' to 3'): a small letter for the sugar, then the base; units joined by * are phosphorothioate-linked, units joined directly phosphodiester-linked; [ ] holds rarer units or linkages, { } end groups; capitals alone tell only the bases. [DMAEAc-N] = nucleoside with 2'-O-dimethylaminoethyl acetamide (DMAEAc) sugar (N: the base); e = 2'-O-(2-methoxyethyl) (MOE); {P} = phosphate; f = 2'-fluoro

SUBSTANCE	UNIT_STRING	EC50
P-UfUfGfUfCfUfCfUfGfGfUfCfCfUfUfAfCfUfUfAeAe (antisense UUGUCUCUGGUCCUUACUUAA; sugars from the 5' end f19 e2, 5' {P}, backbone not given here) [ISIS 404320, modified ssRNA targeting PTEN]	nM	5
P-TScUfGmUfCmUfCmUfGmGfUmCfCmUfUmAfCmUfUmAeAe (antisense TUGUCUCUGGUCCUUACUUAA; 5'-phosphate, 2'-F/2'-OMe, MOE modifications, chemistry not fully specified) [ISIS 467074, modified ssRNA targeting PTEN]	nM	2.5
P-UfUfGfUfCfUfCfUfGfGfUfCfCfUfUfAfCfUfUf (antisense {P}-fUfUfGfUfCfUfCfUfGfGfUfC*fC*fU*fU*fA*fC*fU*fU) [ISIS 386187, modified ssRNA targeting PTEN]	nM	15
P-TdUfGmUfCmUfCmUfGmGfUmCfCmUfUmAfCmUfUmAeAe (antisense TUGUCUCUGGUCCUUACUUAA; 5'-phosphate, chemical modifications, chemistry not fully specified) [ISIS 435397, modified ssRNA targeting PTEN]	nM	2
P-TdUfGfUfCfUfCfUfGfGfUfCfCfUfUfAfCfUfUfAeAe (antisense {P}-[DMAEAc-T]fUfGfUfCfUfCfUfGfGfUfCfCfU*fU*fA*fC*fU*fU*eA*eA) [ISIS 422391, modified ssRNA targeting PTEN]	nM	5

* * *

Measured % Kd, listed per entry.
Test system: PTEN
PROCEDURE_TEXT: In vivo evaluation of ssRNA formulated in lipid particle LNP06, liver PTEN mRNA (Example 77)
Set-up: species or system mouse
CONDITION_DESCRIPTION: ssRNA formulated in LNP06, 4.5 mg/kg tail vein, C57BL/6 mice, liver PTEN mRNA normalized to GAPDH, 2 days post injection
Experimental: In accordance with the present disclosure, oligomeric compounds were synthesized and tested for their ability to reduce PTEN. […] Liver lysates were prepared from the frozen tissues and liver mRNA levels of PTEN normalized to GAPDH were quantified using a branched DNA assay (QuantiGene Assay, Panomics, Calif.).
Strand notation (5' to 3'): a small letter for the sugar, then the base; units joined by * are phosphorothioate-linked, units joined directly phosphodiester-linked; [ ] holds rarer units or linkages, { } end groups; capitals alone tell only the bases. {PS2} = PS2 group (structure drawn in the publication); e = 2'-O-(2-methoxyethyl) (MOE); m = 2'-O-methyl; f = 2'-fluoro

SUBSTANCE	TARGET_UNDER_TEST	% Kd / %
P-TScUfGmUfCmUfCmUfGmGfUmCfCmUfUmAfCmUfUmAeAe (antisense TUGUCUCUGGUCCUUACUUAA; 5'-phosphate, 2'-F/2'-OMe, MOE modifications, chemistry not fully specified) [ISIS 467074, modified ssRNA targeting PTEN]	PTEN	52
P-USSUfGmUfCmUfCmUfGmGfUmCfCmUfUmAfCmUfUmAeAe (antisense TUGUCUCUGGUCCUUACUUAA; 5'-phosphate, 2'-F/2'-OMe, MOE modifications, chemistry not fully specified) [ISIS 467088, modified ssRNA targeting PTEN]	PTEN	50
P-TdUfGmUfCmUfCmUfGmGfUmCfCmUfUmAfCmUfUmAeAe (antisense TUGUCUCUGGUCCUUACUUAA; 5'-phosphate, chemical modifications, chemistry not fully specified) [ISIS 435397, modified ssRNA targeting PTEN]	PTEN	44
PS2-TmoeUfGmUfCmUfCmUfGmGfUmCfCmUfUmAfCmUfUmAeAe (antisense {PS2}-eT*fU*mGfU*mCfU*mCfU*mGfG*mUfC*mCfU*mU*fA*mC*fU*mU*eA*eA) [A-59890, modified ssRNA targeting PTEN]	PTEN	31

* * *

Tested on: PTEN
PROCEDURE_TEXT: PTEN mRNA reduction in HeLa cells, dose response (Example 72)
Assay type: cell-based, human
CONDITION_DESCRIPTION: percent inhibition of PTEN mRNA, 0.167-50 nM
Strand notation (5' to 3'): a small letter for the sugar, then the base; units joined by * are phosphorothioate-linked, units joined directly phosphodiester-linked; [ ] holds rarer units or linkages, { } end groups; capitals alone tell only the bases. [FEt-N] = nucleoside with 2'-OCH2CH2F (FEt) sugar (N: the base); [FEt] = thymidine with 2'-OCH2CH2F (FEt) sugar; e = 2'-O-(2-methoxyethyl) (MOE); {P} = phosphate; f = 2'-fluoro
Decide using IC50 alone. Strictly below 8 nM: MET. Equal to or above 8 nM: NOT MET.

SUBSTANCE	CLASS_NAME
P-TdUfGmUfCmUfCmUfGmGfUmCfCfUfUfAfCfUfUfAeAe (antisense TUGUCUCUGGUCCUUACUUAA; 5'-phosphate, chemical modifications, chemistry not fully specified) [ISIS 435399, modified ssRNA targeting PTEN]	MET
P-TUfGfUfCfUfCfUfGfGfUfCfCfUfUfAfCfUfUfAeAe (antisense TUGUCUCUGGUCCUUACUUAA; 5'-phosphate, chemical modifications, chemistry not fully specified) [ISIS 418131, modified ssRNA targeting PTEN]	MET
P-TdUfGfUfCfUfCfUfGfGfUfCfCfUfUfAfCfUfUfAeAe (antisense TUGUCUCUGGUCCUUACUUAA; chemistry not fully specified) [ISIS 435394, modified ssRNA targeting PTEN]	NOT MET
P-TeUfGfUfCfUfCfUfGfGfUfCfCfUfUfAfCfUfUfAeAe (antisense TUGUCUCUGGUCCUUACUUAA; sugars from the 5' end e1 f18 e2, 5' {P}, backbone not given here) [ISIS 418031, modified ssRNA targeting PTEN]	MET
P-TefUfGfUfCfUfCfUfGfGfUfCfCfUfUfAfCfUfUfAeAe (antisense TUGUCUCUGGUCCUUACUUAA; sugars from the 5' end [FEt]1 f18 e2, 5' {P}, backbone not given here; further chemistry not fully specified) [ISIS 418032, modified ssRNA targeting PTEN]	MET
P-UeUfGfUfCfUfCfUfGfGfUfCfCfUfUfAfCfUfUfAeAe (antisense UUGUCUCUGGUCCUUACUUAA; sugars from the 5' end e1 f18 e2, 5' {P}, backbone and T or U not given here) [ISIS 418030, modified ssRNA targeting PTEN]	NOT MET
P-TefUfGfUfCfUfCfUfGfGfUfCfCfUfUfAfCfUfUfAeAe (antisense {P}-[FEt-T]fUfGfUfCfUfCfUfGfGfUfCfCfU*fU*fA*fC*fU*fU*eA*eA) [ISIS 418033, modified ssRNA targeting PTEN]	NOT MET
P-UfUfGfUfCfUfCfUfGfGfUfCfCfUfUfAfCfUfUfAeAe (antisense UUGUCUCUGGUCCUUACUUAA; sugars from the 5' end f19 e2, 5' {P}, backbone not given here) [ISIS 404320, modified ssRNA targeting PTEN]	MET
P-TdUfGmUfCmUfCmUfGmGfUmCfCmUfUmAfCmUfUmAeAe (antisense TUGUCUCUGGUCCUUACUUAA; 5'-phosphate, chemical modifications, chemistry not fully specified) [ISIS 435397, modified ssRNA targeting PTEN]	MET

Reference for the values: patent US20130156845A1
